meta.source: patent US20100041597A1

Molecular target: T1, PKC-ζ (purified isoform) (Homo sapiens (Human), UniProt Q05513 1-592)
T1 construct: also called PKC-zeta; PKCzeta
T1 sequence: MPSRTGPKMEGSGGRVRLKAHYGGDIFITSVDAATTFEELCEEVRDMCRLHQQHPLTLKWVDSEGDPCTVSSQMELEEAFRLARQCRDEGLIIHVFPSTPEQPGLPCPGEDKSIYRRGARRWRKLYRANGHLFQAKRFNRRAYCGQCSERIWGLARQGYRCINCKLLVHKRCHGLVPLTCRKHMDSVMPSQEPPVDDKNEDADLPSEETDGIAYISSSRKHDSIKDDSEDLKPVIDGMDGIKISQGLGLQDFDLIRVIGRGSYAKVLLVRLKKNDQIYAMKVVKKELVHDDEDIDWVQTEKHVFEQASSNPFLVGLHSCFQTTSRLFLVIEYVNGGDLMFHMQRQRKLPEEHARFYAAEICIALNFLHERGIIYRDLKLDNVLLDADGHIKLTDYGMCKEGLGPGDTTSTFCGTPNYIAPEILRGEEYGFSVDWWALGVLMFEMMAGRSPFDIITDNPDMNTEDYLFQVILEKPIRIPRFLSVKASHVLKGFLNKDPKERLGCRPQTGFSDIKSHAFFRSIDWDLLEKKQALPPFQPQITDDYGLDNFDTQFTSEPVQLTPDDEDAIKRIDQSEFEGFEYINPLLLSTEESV
Assay: competitive ELISA on purified PKC-ζ vs anti-PKC-ζ Ab; PRE 200 µM
measured.attribute: binding capacity (%)

>>> df
                                     binder    measured_attribute  readout_number
0  ILEDKGGDAQNLIGISI (Synthetic peptide; termini given free; also called peptide PRE 8) [PRE 8]  binding capacity (%)               0
1  Ac-KDAQNLIGISI-NH2 (Synthetic peptide; also called peptide PRE 4) [PRE 4]  binding capacity (%)            5.85
2  Ac-KDANQLIGISI-NH2 (Synthetic peptide; also called peptide PRE 6) [PRE 6]  binding capacity (%)               0
3  Ac-RDAQNLI-NH2 (Synthetic peptide; also called peptide PRE 13; Ac-RDAQNLI-NH2) [PRE 13]  binding capacity (%)            4.29
4  Ac-ISIGILQNADK-NH2 (Synthetic peptide (retro form of PRE 4); also called peptide PRE 7) [PRE 7]  binding capacity (%)            1.54
